The measured values listed here are drawn from the supplement of paper PMC10567573.

B1: FBF1 (parent)
chain: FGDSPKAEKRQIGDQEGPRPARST

variants of: B1; assay: protein stability index of a GFP-peptide fusion (GPS, HEK-293T) (PSI 1-6); higher = more stable; details: c terminus: a fixed tail appended;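 note: lentivirally expressed fusions sorted by FACS into six bins by GFP to DsRed ratio, PSI derived from sequencing read proportions per bin multiplied by bin number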
Collected protein stability index values appear next to each entry.
endpoint name: protein stability index

{"variant key": "P5Q", "endpoint name": "protein stability index", "data value": 4.55}
{"variant key": "S4V", "endpoint name": "protein stability index", "data value": 5.61}
{"variant key": "S23K", "endpoint name": "protein stability index", "data value": 4.29}
{"variant key": "D3R", "endpoint name": "protein stability index", "data value": 4.97}
{"variant key": "A7L", "endpoint name": "protein stability index", "data value": 5.32}
{"variant key": "T24H", "endpoint name": "protein stability index", "data value": 4.98}
{"variant key": "R22G", "endpoint name": "protein stability index", "data value": 4.92}
{"variant key": "K9G", "endpoint name": "protein stability index", "data value": 5.2}
{"variant key": "G2I", "endpoint name": "protein stability index", "data value": 3.83}
{"variant key": "P20R", "endpoint name": "protein stability index", "data value": 5.26}
{"variant key": "Q11F", "endpoint name": "protein stability index", "data value": 3.59}
